- protocol: Modulation of gamma secretase in CHO-2B7 cells assessed as reduction in amyloid beta 42 level after 5 hrs by MSD ELISA
- Type: cell-based
- condition_set: Cricetulus griseus, CHO-2B7, 5 h
Consider the following molecules; for each one, report its pIC50.
In simple prose, pIC50 is minus the logarithm base ten of a concentration in moles per litre.

Could you share which pIC50 value was measured for CC(C)[C@@H](OC(=O)N1CCC1)[C@H]1C[C@@H](C)[C@H]2[C@H](O1)[C@H](O)[C@@]1(C)[C@@H]3CC[C@H]4C(C)(C)[C@@H](O[C@H]5CN(C(=O)CN6CCC6)CCO5)CC[C@@]45C[C@@]35CC[C@]21C ? 6.96

Now the same for CNC(=O)O[C@H]1CC[C@]23C[C@]24CC[C@]2(C)[C@@H]5[C@H](O[C@@H]([C@H](OC(=O)N6CCC6)C(C)C)C[C@H]5C)[C@H](O)[C@@]2(C)[C@@H]4CC[C@H]3C1(C)C 6.12

Now the same for CC(C)[C@@H](OC(=O)N1CCC1)[C@H]1C[C@@H](C)[C@H]2[C@H](O1)[C@H](O)[C@@]1(C)[C@@H]3CC[C@H]4C(C)(C)[C@@H](O[C@H]5CN(CCCC(=O)O)CCO5)CC[C@@]45C[C@@]35CC[C@]21C 6.55

Now the same for CCO[C@@H]([C@H]1C[C@@H](C)[C@H]2[C@H](O1)[C@H](O)[C@@]1(C)[C@@H]3CC[C@H]4C(C)(C)[C@@H](OC(=O)N5CCNC(C(F)(F)F)C5)CC[C@@]45C[C@@]35CC[C@]21C)C(C)(C)O (some centres undefined) 6.41

* * *

Consider the following compounds; for each one, report its concentration at 6 h.
- protocol: Plasma concentration in CD1 mouse at 1 mg/kg, iv at 6 hrs
Unit nM implied. Number only.

Could you share which concentration at 6 h value was measured for CCO[C@@H]([C@H]1C[C@@H](C)[C@H]2[C@H](O1)[C@H](O)[C@@]1(C)[C@@H]3CC[C@H]4C(C)(C)[C@@H](O[C@H]5CN(CCOC)CCO5)CC[C@@]45C[C@@]35CC[C@]21C)C(C)(C)O ? 35

Now the same for CC(C)[C@@H](OC(=O)N1CCC1)[C@H]1C[C@@H](C)[C@H]2[C@H](O1)[C@H](O)[C@@]1(C)[C@@H]3CC[C@H]4C(C)(C)[C@@H](OC(=O)N5CCN(C)CC5)CC[C@@]45C[C@@]35CC[C@]21C 450

Now the same for CC(C)[C@@H](OC(=O)N1CCC1)[C@H]1C[C@@H](C)[C@H]2[C@H](O1)[C@H](O)[C@@]1(C)[C@@H]3CC[C@H]4C(C)(C)[C@@H](OC(=O)N(C)C5CN(C)C5)CC[C@@]45C[C@@]35CC[C@]21C 274

* * *

- protocol: Modulation of gamma secretase in CHO-2B7 cells assessed as reduction in amyloid beta 42 level after 5 hrs by MSD ELISA
- Assay type: cell-based
- condition_set: Cricetulus griseus, CHO-2B7, 5 h
Note to self: use Satisfied only for IC50 readings below 0.2 µM; a reading exactly at 0.2 µM still gets Not satisfied.

Say whether its IC50 is strictly beneath 0.2 µM. Entry: CC(C)[C@@H](OC(=O)N(C)C)[C@H]1C[C@@H](C)[C@H]2[C@H](O1)[C@H](O)[C@@]1(C)[C@@H]3CC[C@H]4C(C)(C)[C@@H](O[C@H]5CNCCO5)CC[C@@]45C[C@@]35CC[C@]21C Not satisfied

Now the same for CC(C)[C@@H](OC(=O)N(C)C)[C@H]1C[C@@H](C)[C@H]2[C@H](O1)[C@H](O)[C@@]1(C)[C@@H]3CC[C@H]4C(C)(C)[C@@H](OC(N)=O)CC[C@@]45C[C@@]35CC[C@]21C Not satisfied

Now the same for CC(C)[C@@H](OC(=O)N1CCC1)[C@H]1C[C@@H](C)[C@H]2[C@H](O1)[C@H](O)[C@@]1(C)[C@@H]3CC[C@H]4C(C)(C)[C@@H](OC(=O)N[C@H]5CCCNC5=O)CC[C@@]45C[C@@]35CC[C@]21C Not satisfied

Now the same for CC(=O)O[C@@H]([C@H]1C[C@@H](C)[C@H]2[C@H](O1)[C@H](O)[C@@]1(C)[C@@H]3CC[C@H]4C(C)(C)[C@@H](O[C@H]5CNCCO5)CC[C@@]45C[C@@]35CC[C@]21C)C(C)(C)O Satisfied

Now the same for CC(C)[C@@H](OC(=O)N1CCC1)[C@H]1C[C@@H](C)[C@H]2[C@H](O1)[C@H](O)[C@@]1(C)[C@@H]3CC[C@H]4C(C)(C)[C@@H](OC(=O)N[C@@H]5CCNC5=O)CC[C@@]45C[C@@]35CC[C@]21C Satisfied

Now the same for CCO[C@@H]([C@H]1C[C@@H](C)[C@H]2[C@H](O1)[C@H](O)[C@@]1(C)[C@@H]3CC[C@H]4C(C)(C)[C@@H](O[C@H]5CN(CCN(C)C)CCO5)CC[C@@]45C[C@@]35CC[C@]21C)C(C)(C)O Satisfied

Now the same for CCO[C@@H]([C@H]1C[C@@H](C)[C@H]2[C@H](O1)[C@H](O)[C@@]1(C)[C@@H]3CC[C@H]4C(C)(C)[C@@H](O[C@H]5CN(C6COC6)CCO5)CC[C@@]45C[C@@]35CC[C@]21C)C(C)(C)O Not satisfied

Now the same for CC(C)[C@@H](OC(=O)N1CCC1)[C@H]1C[C@@H](C)[C@H]2[C@H](O1)[C@H](O)[C@@]1(C)[C@@H]3CC[C@H]4C(C)(C)[C@@H](OC(=O)N(C)C5CN(C)C5)CC[C@@]45C[C@@]35CC[C@]21C Satisfied

Now the same for CC(C)[C@@H](OC(=O)N1CCC1)[C@H]1C[C@@H](C)[C@H]2[C@H](O1)[C@H](O)[C@@]1(C)[C@@H]3CC[C@H]4C(C)(C)[C@@H](OC(=O)NC5CNC5)CC[C@@]45C[C@@]35CC[C@]21C Satisfied

* * *

- protocol: Modulation of gamma secretase in CHO-2B7 cells assessed as reduction in amyloid beta 42 level after 5 hrs by MSD ELISA
- Format: cell-based
- condition_set: Cricetulus griseus, CHO-2B7, 5 h
Consider the following molecules; for each one, report its pIC50.
In simple prose, pIC50 is minus the logarithm base ten of a concentration in moles per litre.

Could you share which pIC50 value was measured for CC(C)[C@@H](OC(N)=O)[C@H]1C[C@@H](C)[C@H]2[C@H](O1)[C@H](O)[C@@]1(C)[C@@H]3CC[C@H]4C(C)(C)[C@@H](OC(=O)NC5CNC5)CC[C@@]45C[C@@]35CC[C@]21C ? 6.80

Now the same for CNC(=O)O[C@H](C(C)C)[C@H]1C[C@@H](C)[C@H]2[C@H](O1)[C@H](O)[C@@]1(C)[C@@H]3CC[C@H]4C(C)(C)[C@@H](OC(=O)N5CCC5)CC[C@@]45C[C@@]35CC[C@]21C 4.77

Now the same for CC(C)[C@@H](OC(=O)N1CCC1)[C@H]1C[C@@H](C)[C@H]2[C@H](O1)[C@H](O)[C@@]1(C)[C@@H]3CC[C@H]4C(C)(C)[C@@H](O[C@H]5CN([C@@H]6CCNC6=O)CCO5)CC[C@@]45C[C@@]35CC[C@]21C 6.31

Now the same for CC(C)[C@@H](OC(=O)N1CCC1)[C@H]1C[C@@H](C)[C@H]2[C@H](O1)[C@H](O)[C@@]1(C)[C@@H]3CC[C@H]4C(C)(C)[C@@H](O[C@H]5CN(C)CCO5)CC[C@@]45C[C@@]35CC[C@]21C 6.11

* * *

- protocol: Modulation of gamma secretase in CHO-2B7 cells assessed as reduction in amyloid beta 42 level after 5 hrs by MSD ELISA
- Format: cell-based
- condition_set: Cricetulus griseus, CHO-2B7, 5 h
Consider the following molecules; for each one, report its IC50.
Unit nM implied. Number only.

Could you share which IC50 value was measured for CCO[C@@H]([C@H]1C[C@@H](C)[C@H]2[C@H](O1)[C@H](O)[C@@]1(C)[C@@H]3CC[C@H]4C(C)(C)[C@@H](OC(=O)NC5CN(C)C5)CC[C@@]45C[C@@]35CC[C@]21C)C(C)(C)O ? 65

Now the same for CCO[C@@H]([C@H]1C[C@@H](C)[C@H]2[C@H](O1)[C@H](O)[C@@]1(C)[C@@H]3CC[C@H]4C(C)(C)[C@@H](OC(=O)NC)CC[C@@]45C[C@@]35CC[C@]21C)C(C)(C)O 360

* * *

- Test system: Liver microsomes
- protocol: Metabolic stability in human liver microsomes at 1 uM after 60 mins by LC/MS/MS analysis
- condition_set: 1 h
observable: Stability

CCO[C@@H]([C@H]1C[C@@H](C)[C@H]2[C@H](O1)[C@H](O)[C@@]1(C)[C@@H]3CC[C@H]4C(C)(C)[C@@H](O[C@H]5CN(CCOC)CCO5)CC[C@@]45C[C@@]35CC[C@]21C)C(C)(C)O :: Stable
CCO[C@@H]([C@H]1C[C@@H](C)[C@H]2[C@H](O1)[C@H](O)[C@@]1(C)[C@@H]3CC[C@H]4C(C)(C)[C@@H](O[C@H]5CN(CCF)CCO5)CC[C@@]45C[C@@]35CC[C@]21C)C(C)(C)O :: Stable
CCO[C@@H]([C@H]1C[C@@H](C)[C@H]2[C@H](O1)[C@H](O)[C@@]1(C)[C@@H]3CC[C@H]4C(C)(C)[C@@H](OC(=O)NC5COC5)CC[C@@]45C[C@@]35CC[C@]21C)C(C)(C)O :: Stable
CCO[C@@H]([C@H]1C[C@@H](C)[C@H]2[C@H](O1)[C@H](O)[C@@]1(C)[C@@H]3CC[C@H]4C(C)(C)[C@@H](OC(=O)N5CCN(C)CC5)CC[C@@]45C[C@@]35CC[C@]21C)C(C)(C)O :: Stable
